- Measurement Target: Peroxisome proliferator-activated receptor alpha (Homo sapiens)
- Method Description: Agonist activity at GAL4-fused PPARalpha (unknown origin) expressed in human HepG2 cells by transactivation assay
- Format: cell-based
- Settings: read-out: EC50
Result Type: EC50 (nM)
Record the value in nM, omitting the unit from your answer.

Fill in the recorded EC50 for this molecule, with Peroxisome proliferator-activated receptor alpha (Homo sapiens) as test system: O=C(O)[C@H](Cc1ccc(Oc2ccccc2)cc1)Oc1ccc(Cl)cc1
3900

Another molecule to look at: O=C(O)[C@H](Cc1ccccc1)Oc1ccc(Cc2ccccc2)cc1
40

###

- Method Description: Agonist activity at GAL4-fused PPARgamma M463A mutant (unknown origin) expressed in human HepG2 cells by transactivation assay
- Format: cell-based
Result Type: pEC50
When answering, recall that pEC50 equals minus log10 of the concentration in mol/L, and write that number alone.

Fill in: pEC50 of O=C(O)[C@H](Cc1ccccc1)Oc1ccc(Cc2ccccc2)cc1 is ___
6.33

# repeat for CN(CCOc1ccc(CC2SC(=O)NC2=O)cc1)c1ccccn1 (stereo not drawn)
8.70

Consider next the compound O=C(O)[C@H](Cc1ccc(Oc2ccccc2)cc1)Oc1ccc(Cl)cc1 in the same way.
6.47

###

- Measurement Target: Peroxisome proliferator-activated receptor gamma (Homo sapiens)
- Sequence (P37231 whole entry): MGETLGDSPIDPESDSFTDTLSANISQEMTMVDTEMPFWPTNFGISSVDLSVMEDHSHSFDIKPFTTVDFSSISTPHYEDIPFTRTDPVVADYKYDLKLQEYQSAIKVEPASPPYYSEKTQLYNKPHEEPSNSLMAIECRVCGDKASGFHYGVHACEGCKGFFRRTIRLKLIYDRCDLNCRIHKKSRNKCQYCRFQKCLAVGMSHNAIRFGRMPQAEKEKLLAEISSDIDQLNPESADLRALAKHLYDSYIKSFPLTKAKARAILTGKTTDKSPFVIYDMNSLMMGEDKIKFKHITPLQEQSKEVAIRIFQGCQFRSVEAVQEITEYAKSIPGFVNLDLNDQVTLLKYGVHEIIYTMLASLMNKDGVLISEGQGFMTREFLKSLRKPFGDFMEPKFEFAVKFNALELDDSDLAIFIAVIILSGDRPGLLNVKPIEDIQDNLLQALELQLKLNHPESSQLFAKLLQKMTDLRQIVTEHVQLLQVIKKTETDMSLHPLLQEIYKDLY
- Method Description: Agonist activity at GAL4-fused PPARgamma (unknown origin) expressed in human HepG2 cells by transactivation assay
- Format: cell-based
- Settings: read-out: EC50
Answer each item with its documented pEC50.
In simple prose, pEC50 is minus the logarithm base ten of a concentration in moles per litre.

Please look up its pEC50: O=C(O)[C@H](Cc1ccccc1)Oc1ccc(Cc2ccccc2)cc1
6.22

Next record, please: O=C(O)[C@H](Cc1ccc(Oc2ccccc2)cc1)Oc1ccc(Cl)cc1
6.49

###

- Measurement Target: Peroxisome proliferator-activated receptor alpha (Homo sapiens, UniProt Q07869, A454M)
- Sequence (Q07869 whole entry A454M, the tested form may be a part): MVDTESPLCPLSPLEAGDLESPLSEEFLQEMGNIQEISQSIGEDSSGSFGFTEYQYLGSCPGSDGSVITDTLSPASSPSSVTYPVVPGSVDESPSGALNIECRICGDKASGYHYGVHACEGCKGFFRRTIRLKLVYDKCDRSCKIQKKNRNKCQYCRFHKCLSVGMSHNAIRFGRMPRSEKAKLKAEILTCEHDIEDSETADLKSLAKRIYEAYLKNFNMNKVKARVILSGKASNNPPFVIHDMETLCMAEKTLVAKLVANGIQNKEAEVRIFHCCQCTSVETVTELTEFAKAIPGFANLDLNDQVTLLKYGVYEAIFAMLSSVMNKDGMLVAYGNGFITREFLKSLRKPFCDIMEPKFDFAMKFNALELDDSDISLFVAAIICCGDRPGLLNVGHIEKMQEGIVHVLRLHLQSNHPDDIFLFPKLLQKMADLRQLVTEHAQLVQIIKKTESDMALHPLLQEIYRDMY
- Method Description: Agonist activity at GAL4-fused PPARalpha A454M mutant (unknown origin) expressed in human HepG2 cells by transactivation assay
Kindly supply the reported pEC50 values for the records listed here.
FYI, pEC50 means -log10 of a concentration in mol per litre.

pEC50 lookup needed for O=C(O)[C@H](Cc1ccccc1)Oc1ccc(Cc2ccccc2)cc1 , thanks.
6.40

Subsequent entry: O=C(O)[C@H](Cc1ccc(Oc2ccccc2)cc1)Oc1ccc(Cl)cc1
6.05

###

- Measurement Target: Peroxisome proliferator-activated receptor alpha (Homo sapiens)
- Method Description: Agonist activity at GAL4-fused PPARalpha (unknown origin) expressed in human HepG2 cells by transactivation assay
- Assay type: cell-based
- Settings: read-out: pEC50 (converted)
Result Type: EC50 (nM)
Please give a number only; it is taken to be in nM.

I would be grateful if you could share the reported EC50 for O=C(O)[C@H](CCOc1ccccc1)Oc1ccc(Cl)cc1 .
3020

Same for O=C(O)[C@H](Cc1ccc(C(F)(F)F)cc1)Oc1ccc(Cl)cc1
3630

Item: O=C(O)[C@H](CCCc1ccc(Cl)cc1)Oc1ccc(Cl)cc1
631

Here is the next molecule: O=C(O)[C@H](CCCc1ccccc1)Oc1ccc(Cl)cc1
589

One more molecule: O=C(O)[C@H](Cc1ccc(-c2ccccc2)cc1)Oc1ccc(Cl)cc1
1120

Query O=C(O)[C@H](COc1ccccc1)Oc1ccc(Cl)cc1 next
2510

// repeat for O=C(O)[C@H](Cc1ccc(Oc2ccccc2)cc1)Oc1ccc(Cl)cc1 and report
871

Now try O=C(O)[C@H](CCc1ccccc1)Oc1ccc(Cl)cc1 .
2400

Same again, this time with O=C(O)[C@H](Cc1ccc(-c2cccs2)cc1)Oc1ccc(Cl)cc1
589

Another molecule to check: O=C(O)[C@H](Cc1ccccc1)Oc1ccc(-c2ccc(Cl)cc2)cc1
3890

Entry to check: O=C(O)[C@H](Cc1ccccc1)Oc1ccc(Oc2ccccc2)cc1
891

###

- Measurement Target: Peroxisome proliferator-activated receptor gamma (Homo sapiens, UniProt P37231)
- Method Description: Agonist activity at GAL4-fused PPARgamma (unknown origin) expressed in human HepG2 cells by transactivation assay
- Format: cell-based
- Settings: read-out: pEC50 (converted)
Consider the cut-off 400 nM. If the recorded EC50 is strictly smaller, the label is Met; if not, the label is Not met.

Below 400 nM on EC50? Entry O=C(O)[C@H](CCCc1ccc(Cl)cc1)Oc1ccc(Cl)cc1
Met

// repeat for O=C(O)[C@H](CCOc1ccccc1)Oc1ccc(Cl)cc1 and report
Not met

Same question, O=C(O)[C@H](Cc1ccc(-c2cccs2)cc1)Oc1ccc(Cl)cc1 this time
Met

Next up: O=C(O)[C@H](Cc1ccccc1)Oc1ccc(Oc2ccccc2)cc1
Not met

Next: O=C(O)[C@H](Cc1ccc(C(F)(F)F)cc1)Oc1ccc(Cl)cc1
Not met
